- Study system: muPA K41A (Mus musculus, UniProt P06869, K210A)
- Construct: To ensure that the uPAs purified from the conditioned media were completely in the two-chain form, they were treated with plasmin; hexa-His (C); made in house; host or cells: HEK293 6E suspension cells
- Sequence (P06869 180-433 K210A): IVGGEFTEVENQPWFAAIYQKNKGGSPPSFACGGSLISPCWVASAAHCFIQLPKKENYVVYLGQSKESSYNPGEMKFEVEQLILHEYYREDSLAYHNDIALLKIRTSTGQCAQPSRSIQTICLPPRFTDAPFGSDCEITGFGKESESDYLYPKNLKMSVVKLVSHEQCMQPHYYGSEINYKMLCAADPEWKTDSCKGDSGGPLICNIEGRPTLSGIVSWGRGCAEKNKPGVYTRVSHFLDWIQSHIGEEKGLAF
- Sequence (P06869 21-178 partner limits assumed): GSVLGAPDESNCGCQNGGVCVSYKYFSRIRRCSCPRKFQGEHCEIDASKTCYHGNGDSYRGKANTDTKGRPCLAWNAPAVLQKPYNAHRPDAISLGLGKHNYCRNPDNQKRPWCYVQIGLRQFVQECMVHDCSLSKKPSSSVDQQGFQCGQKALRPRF
- Experimental protocol: Ki for inhibition of muPA-K41A, chromogenic substrate
- Type: biochemical, murine
- Measurement context: means ± S.D.; read-out: K i for inhibition of muPA-K41A
Bridge positions count the residues as written; N and C are the ends. Square brackets hold non-standard residues; d marks the D form. Peptide text beside a SMILES is read from it. Ala(1-amidino-4-piperidyl) = N=C(N)N1CCC(C[C@H](N)C(=O)O)CC1
Endpoint name: Ki (nM)
State just the number; it will be interpreted in nM.

Incoming: # lookup: Ki of CC(=O)N[C@H]1CSSC[C@@H](C(N)=O)NC(=O)[C@H](CC(=O)O)NC(=O)[C@H](CC(C)C)NC(=O)[C@H](Cc2ccc(O)cc2)NC(=O)[C@H](CC2CCN(C(=N)N)CC2)NC(=O)[C@H](CO)NC(=O)[C@H](Cc2ccc(O)cc2)NC(=O)[C@H](C)NC(=O)[C@@H]2CCCN2C1=O [Mupain-1-16] (Ac-CPAYS[Ala(1-amidino-4-piperidyl)]YLDC-NH2; disulfide 1-10)
Outgoing: 300

----------
Attribute: Ki
- Study system: muPA S190A (Mus musculus, UniProt P06869, S373A)
- Construct: To ensure that the uPAs purified from the conditioned media were completely in the two-chain form, they were treated with plasmin; hexa-His (C); made in house; host or cells: HEK293 6E suspension cells
- Sequence (P06869 180-433 S373A, one chain of several): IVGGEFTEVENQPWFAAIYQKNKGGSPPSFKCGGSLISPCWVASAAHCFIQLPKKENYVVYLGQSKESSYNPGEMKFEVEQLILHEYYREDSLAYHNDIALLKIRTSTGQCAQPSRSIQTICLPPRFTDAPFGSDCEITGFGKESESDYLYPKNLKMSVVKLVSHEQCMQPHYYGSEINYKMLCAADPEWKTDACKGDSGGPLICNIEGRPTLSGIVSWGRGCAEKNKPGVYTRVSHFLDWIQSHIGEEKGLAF
- Experimental protocol: Ki for inhibition of muPA-S190A, chromogenic substrate
- Format: biochemical, murine
- Measurement context: means ± S.D.; read-out: K i for inhibition of muPA-S190A
Bridge positions count the residues as written; N and C are the ends. Square brackets hold non-standard residues; d marks the D form. Peptide text beside a SMILES is read from it. Ala(1-amidino-4-piperidyl) = N=C(N)N1CCC(C[C@H](N)C(=O)O)CC1; Phe(4-guanidino) = N=C(N)Nc1ccc(C[C@H](N)C(=O)O)cc1
Expressed in µM, but write only the number.

Below: 2 compounds and their reported Ki.
- Compound: "CC(=O)N[C@H]1CSSC[C@@H](C(N)=O)NC(=O)[C@H](CC(=O)O)NC(=O)[C@H](CC(C)C)NC(=O)[C@H](Cc2ccc(O)cc2)NC(=O)[C@H](Cc2ccc(NC(=N)N)cc2)NC(=O)[C@H](CO)NC(=O)[C@H](Cc2ccc(O)cc2)NC(=O)[C@H](C)NC(=O)[C@@H]2CCCN2C1=O [Mupain-1-12, CPAYS[4-guanidino-phenyl-alanine]YLDC] (Ac-CPAYS[Phe(4-guanidino)]YLDC-NH2; disulfide 1-10)"
  Units of measure: "µM"
  Reported: 2.3
- Compound: "CC(=O)N[C@H]1CSSC[C@@H](C(N)=O)NC(=O)[C@H](CC(=O)O)NC(=O)[C@H](CC(C)C)NC(=O)[C@H](Cc2ccc(O)cc2)NC(=O)[C@H](CC2CCN(C(=N)N)CC2)NC(=O)[C@H](CO)NC(=O)[C@H](Cc2ccc(O)cc2)NC(=O)[C@H](C)NC(=O)[C@@H]2CCCN2C1=O [Mupain-1-16] (Ac-CPAYS[Ala(1-amidino-4-piperidyl)]YLDC-NH2; disulfide 1-10)"
  Units of measure: "µM"
  Reported: 0.352

Incoming: Suppose we examine the compound CC(=O)N[C@H]1CSSC[C@@H](C(N)=O)NC(=O)[C@H](C)NC(=O)[C@H](CC(C)C)NC(=O)[C@H](Cc2ccc(O)cc2)NC(=O)[C@H](Cc2ccc(NC(=N)N)cc2)NC(=O)[C@H](CO)NC(=O)[C@H](Cc2ccc(O)cc2)NC(=O)[C@H](C)NC(=O)[C@@H]2CCCN2C1=O [Mupain-1-12 D9A, CPAYS[4-guanidino-phenyl-alanine]YLAC] (Ac-CPAYS[Phe(4-guanidino)]YLAC-NH2; disulfide 1-10; N-terminus assumed) ; what Ki value has been reported?
Outgoing: 3.52

----------
- Study system: huPA-H99Y (Homo sapiens, UniProt P00749, H272Y)
- Construct: To ensure that the uPAs purified from the conditioned media were completely in the two-chain form, they were treated with plasmin; hexa-His (C); made in house; host or cells: HEK293 6E suspension cells
- Experimental protocol: Surface plasmon resonance analysis of peptide binding to huPA-H99Y
- Measurement context: SPR, 25°C, pH 7.4; calculated as k off/k on; read-out: K D, huPA-H99Y
Bridge positions count the residues as written; N and C are the ends. Square brackets hold non-standard residues; d marks the D form. Peptide text beside a SMILES is read from it. Ala(1-amidino-4-piperidyl) = N=C(N)N1CCC(C[C@H](N)C(=O)O)CC1; Phe(4-guanidino) = N=C(N)Nc1ccc(C[C@H](N)C(=O)O)cc1
# reported pKd; entries follow
Reminder that pKd means the negative base-10 logarithm of the concentration expressed in mol/L.

Incoming: Name the reported pKd value associated with the compound CC(=O)N[C@H]1CSSC[C@@H](C(N)=O)NC(=O)[C@H](CC(=O)O)NC(=O)[C@H](CC(C)C)NC(=O)[C@H](Cc2ccc(O)cc2)NC(=O)[C@H](Cc2ccc(NC(=N)N)cc2)NC(=O)[C@H](CO)NC(=O)[C@H](Cc2ccc(O)cc2)NC(=O)[C@H](C)NC(=O)[C@@H]2CCCN2C1=O [Mupain-1-12, CPAYS[4-guanidino-phenyl-alanine]YLDC] (Ac-CPAYS[Phe(4-guanidino)]YLDC-NH2; disulfide 1-10)
Outgoing: 5.92

Incoming: Entry CC(=O)N[C@H]1CSSC[C@@H](C(N)=O)NC(=O)[C@H](C)NC(=O)[C@H](CC(C)C)NC(=O)[C@H](Cc2ccc(O)cc2)NC(=O)[C@H](Cc2ccc(NC(=N)N)cc2)NC(=O)[C@H](CO)NC(=O)[C@H](Cc2ccc(O)cc2)NC(=O)[C@H](C)NC(=O)[C@@H]2CCCN2C1=O [Mupain-1-12 D9A, CPAYS[4-guanidino-phenyl-alanine]YLAC] (Ac-CPAYS[Phe(4-guanidino)]YLAC-NH2; disulfide 1-10; N-terminus assumed) : reported pKd = ?
Outgoing: 6.87

Incoming: // query pKd value for entry CC(=O)N[C@H]1CSSC[C@@H](C(N)=O)NC(=O)[C@H](CC(=O)O)NC(=O)[C@H](CC(C)C)NC(=O)[C@H](Cc2ccc(O)cc2)NC(=O)[C@H](CC2CCN(C(=N)N)CC2)NC(=O)[C@H](CO)NC(=O)[C@H](Cc2ccc(O)cc2)NC(=O)[C@H](C)NC(=O)[C@@H]2CCCN2C1=O [Mupain-1-16] (Ac-CPAYS[Ala(1-amidino-4-piperidyl)]YLDC-NH2; disulfide 1-10)
Outgoing: 6.07

Incoming: Data request, read-out pKd, for CC(=O)N[C@H]1CSSC[C@@H](C(N)=O)NC(=O)[C@H](C)NC(=O)[C@H](CC(C)C)NC(=O)[C@H](Cc2ccc(O)cc2)NC(=O)[C@H](CCCNC(=N)N)NC(=O)[C@H](CO)NC(=O)[C@H](Cc2ccc(O)cc2)NC(=O)[C@H](C)NC(=O)[C@@H]2CCCN2C1=O [Mupain-1 D9A, CPAYSRYLAC] (Ac-CPAYSRYLAC-NH2; disulfide 1-10)
Outgoing: 5.85

Incoming: Fill in: pKd of CC(=O)N[C@H]1CSSC[C@@H](C(N)=O)NC(=O)[C@H](C)NC(=O)[C@H](CC(C)C)NC(=O)[C@H](Cc2ccc(O)cc2)NC(=O)[C@H](CC2CCN(C(=N)N)CC2)NC(=O)[C@H](CO)NC(=O)[C@H](Cc2ccc(O)cc2)NC(=O)[C@H](C)NC(=O)[C@@H]2CCCN2C1=O [Mupain-1-16 D9A] (Ac-CPAYS[Ala(1-amidino-4-piperidyl)]YLAC-NH2; disulfide 1-10) is ___
Outgoing: 7.14

----------
- Study system: muPA K41A (Mus musculus, UniProt P06869, K210A)
- Construct: To ensure that the uPAs purified from the conditioned media were completely in the two-chain form, they were treated with plasmin; hexa-His (C); made in house; host or cells: HEK293 6E suspension cells
- Experimental protocol: Ki for inhibition of muPA-K41A, chromogenic substrate
- Type: biochemical, murine
- Measurement context: means ± S.D.; read-out: K i for inhibition of muPA-K41A
- From the text: Determination of Ki values The initial reaction velocities were monitored at an absorbance of 405 nm. The inhibition constants (K i) were subsequently determined from the non-linear regression analyses of plots for V i/V o versus [I]0, using Equation 2, derived under assumption of competitive inhibition: [drawing 2] […]
Bridge positions count the residues as written; N and C are the ends. Square brackets hold non-standard residues; d marks the D form. Peptide text beside a SMILES is read from it. Ala(1-amidino-4-piperidyl) = N=C(N)N1CCC(C[C@H](N)C(=O)O)CC1; Phe(4-guanidino) = N=C(N)Nc1ccc(C[C@H](N)C(=O)O)cc1
Measured pKi accompanies every entry in the list below.
Bear in mind: pKi is minus log10 of a mol/L concentration; give just that figure.

- Compound: "CC(=O)N[C@H]1CSSC[C@@H](C(N)=O)NC(=O)[C@H](CC(=O)O)NC(=O)[C@H](CC(C)C)NC(=O)[C@H](Cc2ccc(O)cc2)NC(=O)[C@H](Cc2ccc(NC(=N)N)cc2)NC(=O)[C@H](CO)NC(=O)[C@H](Cc2ccc(O)cc2)NC(=O)[C@H](C)NC(=O)[C@@H]2CCCN2C1=O [Mupain-1-12, CPAYS[4-guanidino-phenyl-alanine]YLDC] (Ac-CPAYS[Phe(4-guanidino)]YLDC-NH2; disulfide 1-10)"
  Endpoint name: "pKi"
  Reported: 5.76
- Compound: "CC(=O)N[C@H]1CSSC[C@@H](C(N)=O)NC(=O)[C@H](C)NC(=O)[C@H](CC(C)C)NC(=O)[C@H](Cc2ccc(O)cc2)NC(=O)[C@H](Cc2ccc(NC(=N)N)cc2)NC(=O)[C@H](CO)NC(=O)[C@H](Cc2ccc(O)cc2)NC(=O)[C@H](C)NC(=O)[C@@H]2CCCN2C1=O [Mupain-1-12 D9A, CPAYS[4-guanidino-phenyl-alanine]YLAC] (Ac-CPAYS[Phe(4-guanidino)]YLAC-NH2; disulfide 1-10; N-terminus assumed)"
  Endpoint name: "pKi"
  Reported: 7.04
- Compound: "CC(=O)N[C@H]1CSSC[C@@H](C(N)=O)NC(=O)[C@H](C)NC(=O)[C@H](CC(C)C)NC(=O)[C@H](Cc2ccc(O)cc2)NC(=O)[C@H](CCCNC(=N)N)NC(=O)[C@H](CO)NC(=O)[C@H](Cc2ccc(O)cc2)NC(=O)[C@H](C)NC(=O)[C@@H]2CCCN2C1=O [Mupain-1 D9A, CPAYSRYLAC] (Ac-CPAYSRYLAC-NH2; disulfide 1-10)"
  Endpoint name: "pKi"
  Reported: 6.57

Incoming: Reported pKi, compound CC(=O)N[C@H]1CSSC[C@@H](C(N)=O)NC(=O)[C@H](C)NC(=O)[C@H](CC(C)C)NC(=O)[C@H](Cc2ccc(O)cc2)NC(=O)[C@H](CC2CCN(C(=N)N)CC2)NC(=O)[C@H](CO)NC(=O)[C@H](Cc2ccc(O)cc2)NC(=O)[C@H](C)NC(=O)[C@@H]2CCCN2C1=O [Mupain-1-16 D9A] (Ac-CPAYS[Ala(1-amidino-4-piperidyl)]YLAC-NH2; disulfide 1-10) : ____
Outgoing: 7.85
